Reported %Inh values for a set of molecules
- System: PDGFRA
- Cond: concentration: 1 μM, replicates: in singlicate; n = 1;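 also: KINOMEscan kinase panel screen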
Provide only the numeric value, understood in %.

The examples below pair each entry with its known result.
| Molecule | Unit string | Reported measurement |
| --- | --- | --- |
| CSc1cccc2c(-c3ccncn3)c(-c3ccc(F)cc3)nn12 | % | 0 |
| O=C(Nc1n[nH]c2nc(-c3ccc(O)cc3)ccc12)C1CC1 | % | 48 |
| Cc1cccc(NC(=O)Nc2ccc(Oc3ncnc4ccn(C)c34)cc2)c1 | % | 99.7 |
| COc1cc2c(cc1OCCN1CCNCC1)ncc1c3ccc(C#N)cc3[nH]c21 | % | 96.4 |
| COC(=O)Nc1nc2cc(Oc3ccc(NC(=O)Nc4cc(C(F)(F)F)ccc4F)cn3)ccc2[nH]1.Cl.Cl | % | 94.7 |
| COc1cc(Nc2nccc(N3CCC(NC(=O)Nc4cccc(C(C)=O)c4)C3)n2)cc(OC)c1OC (centres unmarked) | % | 0 |
| Cc1ccc(F)c(C(=O)Nc2cccc(-c3nn4ccccc4c3-c3ccnc(Nc4cccc(F)c4)n3)c2)c1F | % | 6 |

Record O=c1[nH]cc(-c2ccc(N3CCOCC3)cc2)c2sc(-c3cn[nH]c3)cc12 . Reported %Inh: 32

====

- Test system: RPS6KA5(Kin.Dom.2-C-terminal)
- Cond: concentration: 1 μM, replicates: in singlicate; n = 1
Recorded endpoint: %Inh
Write down the value, and be sure its unit follows.

The examples below pair each entry with its known result.
| Compound | Recorded endpoint | Reported measurement |
| --- | --- | --- |
| COc1cccc(NC(=O)NC2CCN(c3ccnc(Nc4cc(OC)c(OC)c(OC)c4)n3)C2)c1 (stereo not shown) | %Inh | 35% |
| Cl.c1ccc(-c2ccc3c(Nc4ccc5[nH]ccc5c4)ccnc3c2)nc1 | %Inh | 3% |
| COc1cc(Nc2ncc3c(C)nc(-c4cc5ccccc5[nH]4)n3n2)cc(OC)c1OC | %Inh | 7% |

Moving on to the next compound.
Considering COc1ccc(-c2coc3ccc(-c4nnc(SCc5ccc(OC)c(C(F)(F)F)c5)o4)cc23)cc1 , its %Inh with RPS6KA5(Kin.Dom.2-C-terminal) was recorded as 0%

====

Reported %Inh values for a set of molecules
- Test system: CLK4
- Cond: concentration: 1 μM, replicates: in singlicate; n = 1
Provide only the numeric value, understood in %.

| Molecule | Tested system | %Inh (%) |
| --- | --- | --- |
| COc1cccc(-c2ccc3c(NC(=O)C4CC4)n[nH]c3n2)c1 | CLK4 | 20 |
| COc1cccc(NC(=O)NC2CCN(c3ccnc(Nc4cc(OC)c(OC)c(OC)c4)n3)C2)c1 (stereo not drawn) | CLK4 | 0 |
| COc1cc(Nc2nccc(N3CCC(NC(=O)c4cc5ccccc5s4)C3)n2)cc(OC)c1OC (stereo not drawn) | CLK4 | 13 |
| COc1ccc(Nc2nccc(NCCNC(=O)c3cc4ccccc4s3)n2)cc1 | CLK4 | 0 |
| Nc1ncnc2c1nc(-c1ccccc1)n2-c1ccccc1 | CLK4 | 20 |

Moving on to the next molecule.
Record O=C(NC1CCN(c2ccnc(Nc3ccc(F)cc3)n2)C1)c1cc2ccccc2s1 (stereo not drawn) . Reported %Inh: 30

====

- Test system: VEGFR2
- Construct: gene KDR
- Cond: concentration: 1 μM, replicates: in singlicate; n = 1
Reported %Inh values for a set of compounds
Write down the value, and be sure its unit follows.

The examples below pair each entry with its known result.
| Compound | Tested system | %Inh |
| --- | --- | --- |
| Oc1cc(Nc2ccnc3cc(I)ccc23)ccc1F | VEGFR2 | 31% |
| CN(C)Cc1ccc(-c2ccc3c(Nc4ccc(Oc5ccccn5)cc4)ccnc3c2)o1 | VEGFR2 | 17% |
| Cc1ccc(C(=O)Nc2ccc(Nc3ccnc4cc(-c5nccs5)ccc34)cc2O)cc1.Cl | VEGFR2 | 2% |
| COc1cc(Nc2nccc(-c3c(-c4cccc(NC(=O)c5c(F)cccc5F)c4)nn4ncccc34)n2)cc(OC)c1OC | VEGFR2 | 96.1% |
| COc1cc(Nc2nccc(N3CCC(NC(=O)c4cc5ccccc5s4)C3)n2)cc(OC)c1OC (stereo not shown) | VEGFR2 | 0% |
| COC(=O)Nc1nc2cc(Oc3ccc(NC(=O)Nc4cc(C(F)(F)F)ccc4F)cn3)ccc2[nH]1.Cl.Cl | VEGFR2 | 55% |
| O=C(O)C(F)(F)F.O=C(O)C(F)(F)F.O=c1[nH]ccc2nc(N[C@@H]3CCCNC3)nc(Nc3ccc(S(=O)(=O)N4CCOCC4)cc3)c12 | VEGFR2 | 74% |
| Cc1ccc(C(=O)N2CC[C@@H](O)C2)cc1-n1c(C)cc(OCc2ccc(F)cc2F)c(Br)c1=O | VEGFR2 | 0% |
| COc1cc(Nc2nccc(-c3c(-c4cccc(NC(=O)c5c(F)cccc5F)c4)nn4ccccc34)n2)cc(OC)c1OC | VEGFR2 | 0% |
| O=C(Nc1cccc(-c2nn3ncccc3c2-c2ccnc(Nc3ccccc3)n2)c1)c1c(F)cccc1F | VEGFR2 | 80% |

Record c1ccc(-c2cnc3nccnn23)cc1 . Reported %Inh: 0%

Record C[C@@H](Oc1cc(-n2cnc3cc(-c4ccnc(NCCS(C)(=O)=O)c4)ccc32)sc1C(N)=O)c1ccccc1Cl . Reported %Inh: 28%

Record O=C(NC1CCN(c2ccnc(Nc3ccc(F)cc3)n2)C1)c1cc2ccccc2s1 (stereo not shown) . Reported %Inh: 0%

Record C[C@@H]1CC[C@@H](C(=O)Nc2ccccc2)CN1c1cc(-c2ccc3c(N)n[nH]c3c2)nc(N)n1 . Reported %Inh: 0%

Record COC(=O)Nc1nc2ccc(Oc3ccc(NC(=O)Nc4cc(C(F)(F)F)ccc4F)cc3)cc2n1C.Cl . Reported %Inh: 43%

Record COc1cc(Nc2nccc(N3CCC(NC(=O)Nc4cccc(C(C)=O)c4)C3)n2)cc(OC)c1OC (stereo not shown) . Reported %Inh: 0%
